- target: HLA-B*40:01
- assayText: IEDB peptide-MHC binding, purified MHC/competitive/radioactivity; filed as Kd, often an IC50 or EC50 that approximates it; bounds were set here for any values at or beyond the usual limits of such assays
- testConditions: source organism: Mammarenavirus machupoense
observable: Kd (µM)

* EEVLDVCPLG | 14.2

----------
- target: HLA-A*31:01
- assayText: IEDB peptide-MHC binding, purified MHC/competitive/radioactivity; filed as Kd, often an IC50 or EC50 that approximates it; bounds were set here for any values at or beyond the usual limits of such assays
- testConditions: source organism: Mammarenavirus machupoense
observable: Kd

* FLMAFANQIH | ≥ 70 µM
* YVNHTLTGQH | ≥ 70 µM

----------
- target: HLA-B*51:01
- assayText: IEDB peptide-MHC binding, purified MHC/competitive/fluorescence; filed as Kd, often an IC50 or EC50 that approximates it; bounds were set here for any values at or beyond the usual limits of such assays
- testConditions: source organism: Yersinia pestis Nepal516
pKd: −log10 of the molar value.
observable: pKd

* LPFVWAPMV | 7.40

----------
- target: HLA-B*08:01
- assayText: IEDB peptide-MHC binding, purified MHC/competitive/radioactivity; filed as Kd, often an IC50 or EC50 that approximates it; bounds were set here for any values at or beyond the usual limits of such assays
- testConditions: source organism: Vaccinia virus Copenhagen
observable: Kd (µM)

- RLYSIFLIF: 15.7

----------
- target: HLA-A*24:03
- assayText: IEDB peptide-MHC binding, purified MHC/competitive/fluorescence; filed as Kd, often an IC50 or EC50 that approximates it; bounds were set here for any values at or beyond the usual limits of such assays
- testConditions: source organism: Vibrio vulnificus CMCP6
observable: Kd

* FGAQMGWPV | ≥ 20 µM

----------
- target: HLA-A*03:01
- assayText: IEDB peptide-MHC binding, purified MHC/competitive/radioactivity; filed as Kd, often an IC50 or EC50 that approximates it; bounds were set here for any values at or beyond the usual limits of such assays
- testConditions: source organism: Vaccinia virus WR
pKd: −log10 of the molar value.
observable: pKd

* TLISSDGAR | 5.39
* RVAVNKSNK | 8.17
* SSYIDFENTK | 6.20
* NTYLFNILY | 6.20
* KINSVKYYGR | 5.73
* RSDGYFLKIK | 4.98
* QMREIITGNK | 7.80
* KIPIYSHTER | 5.97
* SFSNTIQSYK | 6.93
* RMLFTSTNDK | 8.41

----------
This section presents sequences with their documented Kd values.
- target: HLA-B*15:01
- assayText: IEDB peptide-MHC binding, purified MHC/competitive/fluorescence; filed as Kd, often an IC50 or EC50 that approximates it; bounds were set here for any values at or beyond the usual limits of such assays
- testConditions: source organism: Zaire ebolavirus
observable: Kd

- FLYDRLAST: ≥ 20 µM
- VLSDLCNFL: ≥ 20 µM

----------
- target: HLA-B*39:01
- assayText: IEDB peptide-MHC binding, purified MHC/direct/fluorescence; filed as Kd, often an IC50 or EC50 that approximates it; bounds were set here for any values at or beyond the usual limits of such assays
- testConditions: source organism: Influenza A virus (A/mallard/Norway/685/05(H9N2))
observable: Kd

• HRTLLMNEL = ≥ 20 µM

----------
- target: HLA-A*02:01
- assayText: IEDB peptide-MHC binding, purified MHC/competitive/radioactivity; filed as Kd, often an IC50 or EC50 that approximates it; bounds were set here for any values at or beyond the usual limits of such assays
- testConditions: source organism: Dengue virus 2 Jamaica/1409/1983
pKd: −log10 of the molar value.
Consider the following sequences and their measured pKd readings.
observable: pKd

• YMWLGARFL = 8.17
• IMAAILAYTI = 7.51
• IILEFFLIVL = 6.96

----------
- target: HLA-A*26:01
- assayText: IEDB peptide-MHC binding, purified MHC/direct/fluorescence; filed as Kd, often an IC50 or EC50 that approximates it; bounds were set here for any values at or beyond the usual limits of such assays
- testConditions: source organism: Mycobacterium tuberculosis str. Haarlem
observable: Kd

* ALYLLDGLR | ≥ 20 µM

----------
- target: HLA-A*02:01
- assayText: IEDB peptide-MHC binding, purified MHC/direct/fluorescence; filed as Kd, often an IC50 or EC50 that approximates it; bounds were set here for any values at or beyond the usual limits of such assays
- testConditions: source organism: Escherichia coli
pKd: −log10 of the molar value.
observable: pKd

* RRRIGEIFK | ≤ 4.70

----------
- target: HLA-A*11:01
- assayText: IEDB peptide-MHC binding, purified MHC/direct/fluorescence; filed as Kd, often an IC50 or EC50 that approximates it; bounds were set here for any values at or beyond the usual limits of such assays
- testConditions: source organism: Escherichia coli
pKd: −log10 of the molar value.
observable: pKd

- RRRIGEIFK: ≤ 4.70

----------
- target: HLA-B*15:01
- assayText: IEDB peptide-MHC binding, purified MHC/direct/fluorescence; filed as Kd, often an IC50 or EC50 that approximates it; bounds were set here for any values at or beyond the usual limits of such assays
- testConditions: source organism: Mycobacterium tuberculosis
Each item that follows carries a reported Kd.
observable: Kd

• GPRGRHVVL = ≥ 20 µM
• ALYLLDGLR = ≥ 20 µM

----------
- target: HLA-B*40:01
- assayText: IEDB peptide-MHC binding, purified MHC/competitive/radioactivity; filed as Kd, often an IC50 or EC50 that approximates it; bounds were set here for any values at or beyond the usual limits of such assays
- testConditions: source organism: Dengue virus 4 Dominica/814669/1981
pKd: −log10 of the molar value.
observable: pKd

- TEDDLQNEEL: 6.87

----------
- target: HLA-B*58:01
- assayText: IEDB peptide-MHC binding, purified MHC/direct/fluorescence; filed as Kd, often an IC50 or EC50 that approximates it; bounds were set here for any values at or beyond the usual limits of such assays
- testConditions: source organism: Influenza A virus (A/Wisconsin/4755/1994(H1N1))
observable: Kd

- ITKEKKEEL: ≥ 20 µM

----------
- target: HLA-B*07:02
- assayText: IEDB peptide-MHC binding, purified MHC/direct/fluorescence; filed as Kd, often an IC50 or EC50 that approximates it; bounds were set here for any values at or beyond the usual limits of such assays
- testConditions: source organism: Escherichia coli
observable: Kd

• RRRIGEIFK = ≥ 20 µM

----------
- target: HLA-A*02:01
- assayText: IEDB peptide-MHC binding, purified MHC/competitive/fluorescence; bounds were set here for any values at or beyond the usual limits of such assays
- testConditions: source organism: Zaire ebolavirus
pIC50: −log10 of the molar value.
observable: pIC50

• GSTLAGVNV = ≤ 4.02
• ILFQRTFSI = 6.51
• NLHYWTTQD = ≤ 3.91
• LFEVDNLTY = ≤ 3.68
• KQLQQYAES = ≤ 3.73
• STASDTPSA = 4.92
• SGQSPARTS = ≤ 3.63
• TLATISTSP = 4.53
• MMVIFRLMR = ≤ 2.26
• PGPDNSTHN = ≤ 3.33
• QGIVRQRVI = ≤ 3.40
• AITAASLPK = ≤ 3.55
• QLREAATEA = 4.70
• DMDYHKILT = ≤ 3.56
• RLLNLSGVN = 4.66
• PTVAPPAPV = ≤ 3.77
• IAGVAGLIT = ≤ 3.69
• HGLFPQLSA = 4.32

----------
- target: HLA-A*29:02
- assayText: IEDB peptide-MHC binding, purified MHC/direct/fluorescence; filed as Kd, often an IC50 or EC50 that approximates it; bounds were set here for any values at or beyond the usual limits of such assays
- testConditions: source organism: West Nile virus
Measured Kd, listed per entry for reference.
observable: Kd

* KIRNRIERL | ≥ 20 µM
* YCPGTTVTL | ≥ 20 µM

----------
- target: HLA-B*15:03
- assayText: IEDB peptide-MHC binding, purified MHC/competitive/radioactivity; filed as Kd, often an IC50 or EC50 that approximates it; bounds were set here for any values at or beyond the usual limits of such assays
- testConditions: source organism: Vaccinia virus Copenhagen
pKd: −log10 of the molar value.
observable: pKd

- RLYSIFLIF: 9.80
- SLNTSTLGF: 7.88

----------
- target: HLA-A*24:02
- assayText: IEDB peptide-MHC binding, purified MHC/competitive/fluorescence; filed as Kd, often an IC50 or EC50 that approximates it; bounds were set here for any values at or beyond the usual limits of such assays
- testConditions: source organism: Influenza A virus (A/X-31(H3N2))
pKd: −log10 of the molar value.
observable: pKd

* SWFNSFLTHAL | 6.82

----------
- target: HLA-A*24:02
- assayText: IEDB peptide-MHC binding, purified MHC/competitive/radioactivity; filed as Kd, often an IC50 or EC50 that approximates it; bounds were set here for any values at or beyond the usual limits of such assays
- testConditions: source organism: Mammarenavirus juninense
pKd: −log10 of the molar value.
observable: pKd

* PYIGSRSQI | 5.97
